# credit: a protein production outcome set (Wang et al. 2014)

Assay: label from the status in PepcDB records
Reported Metric: protein production

Seq Text	Reported Measurement
MAGASVAATTLKGDTSLLAGGAIRGAINAFGKDKKLKTQLASSGKLYGKYAKAASKIENLVLGGENISLVVDPP	failed
MGLVGLHSGTIDMEFIGVEDHGDEEGKQIAVSVISSGKNADKTEDPDSLIFTGFGGTDMYHGQPCNQKLERLNIPLEAAFRKKSIVRVVRCMKDEKRTNGNIYIYDGTYMITNRWEEEGQNGFIVFKFKLVREPDQKPAFGIWKSIQNWRNGLSIRPGLILEDLSNGAENLKVCLVNEVDKENGPALFRYVTSLIHEVINNIPSMVDRCACGRRSCGSKHVFREKLSVSSSLVISAKKSGNVARFMNHSCSPNVFWQSIAREQNGLWCLYIGFFAMKHIPPLTELRYDYGKSRGGGKKMCLCRTKKCCGSFG	failed
MRYRNSRQVTGVVKNVTVSQSCGKWYISIQAESEVSTPVHPSASMVGLDAGVAKLASLSDGTVFEPVNSFQKNQKTLARLQRQLSRKVKFSNNWQKQKRKIQRLHSCIANIRRDYLHKVTTTVSKNHVMIVIEDLKVSNMSKSAAGTVSQPGRNVRAKSGLNRSILDQGWYEMRRQLEYKQLWRGGQVLAVPPAYTSQRCACCGHTAKENRLSQSKFRCQVCGYTANADVNGARNILAAGHAVLACGEMVQSGRSLKQEPTEMIQATALEHHHHHH	failed

====

Assay: label from the status in PepcDB records
Reported Metric: protein production

Seq Text	Reported Measurement
MSTLKLFVHNHSSKGDQSFLKTITFAITHFTVAFTVAYLLTGDILIGSLIAMVEPAINTVAYFFHEKIWARHQRNTTANAMNLRQNTH	failed
MPQRRPLRTMKWLIPGLWLASILFAHFRGRVRLSLSRQMLDHSVLLAPVNAFMVLTSRVPTTPYLTTSEIPELKVLDDNWETIRDEALKMAELRRIKAAERHDDIGFNSFFKYGWKRFYLKWYDARHPSAEELCPKTVAILKSLPKVKAAMFAELPPGGKLNPHRDPFSGSLRYHLGLATPNDDRCYIAVDGESYSWRDGESVVFDETYVHEAHNKSEGNRIILFCDVERPLKWRWAEAFNRWFGRVVMSAASSPNDAGDQTGAINKLTHAHWVIDQKRKQFKAWNRTVYKATKWGLIALVAIGFLAL	failed

====

Test: label from the status in PepcDB records

Seq Text	protein production
MIVRRTIDKDELKELPKTVFPGRIYVIQSEAETEKAVAYLQSRPVIGIDSETRPSFTKGQSHKVALLQISSEECCFLFRLNMTGLTQPLVDLLENPAVIKVGLSLKDDFMMLHKRAPFTQQSCIELQDYVRQFGIQDKSLQKIYAILFKEKISKSQRLSNWEADVLSDGQKQYAATDAWACLNIYNLLQELKQTGDWEVSPLTATVSPAEEVISNKISD	failed
MLDLAAPFFLLLLPLPFLVRRFLPPHAAQEGALYLPEAFAAAARPTSAFARSERWEGALRAILWLALVLALAGPERLKAVPDLSASGREIVLTLDMSGSMLIEDFDIDGVQSTRLEAVKRVARSFVEERQGDRIGLVLFANRAYVAAPLTFDLAAVGRAIEEASIGITGRSTAIADGLGLALKSVTESSAASRVIVLLSDGQDNAHQIDARQVAGLAARHGVRIHTIALGPDDLETRPAARDAVDTATLRAIAEASGGRSYRVRGMEDLRAMAADLDRLEPNPAERPPVLVPEPLWPWPALLALGAALVLGLRRAGLAPWPRRAGRAA	failed
AKGLRTVKTCVGSDWCRFGTQDSTGLGIRIERFMWGSWTPAKLKMAVSGCPRNCAEATCKDIGVICVDSGFEIHFAGAAGLDIKGTEVLGLVRTEDEALEYIVALTQMYREQARYLERIYKWAKRIGLEEIRRQIMGDAEK	failed
